B1: Clathrin heavy chain (Saccharomyces cerevisiae), P22137 (parent)
chain: MSDLPIEFTELVDLMSLGISPQFLDFRSTTFESDHFVTVRETKDGTNSVAIVDLAKGNEVTRKNMGGDSAIMHPSQMVISVRANGTIVQIFNLETKSKLKSFTLDEPVIFWRWLSETTLGFVTARSILTSNVFDGNVNAKPQLLTLRHANLNNTQIINFVANKNLDWFAVVGILQENGRIAGRIQLFSKQRNISQAIDGHVAIFTNILLEGNGSTPVQVFVTGNRNATTGAGELRIIEIDHDASLPSQYQKETTDIFFPPDATNDFPIAVQVSEKYGIIYLLTKYGFIHLYELETGTNLFVNRITAESVFTAAPYNHENGIACINKKGQVLAVEISTSQIVPYILNKLSNVALALIVATRGGLPGADDLFQKQFESLLLQNDYQNAAKVAASSTSLRNQNTINRLKNIQAPPGAISPILLYFSTLLDKGKLNKEETIELARPVLQQDRKQLFEKWLKEDKLECSEELGDIVKPFDTTLALACYLRAGAHAKVISCLAELQQFEKIIPYCQKVGYQPNFLVLISSLIRSSPDRASEFAVSLLQNPETASQIDIEKIADLFFSQNHIQQGTSLLLDALKGDTPDQGHLQTRVLEVNLLHAPQVADAILGNNIFSHYDKPTIASLSEKAGLYQRALENYTDIKDIKRCVVHTNALPIDWLVGYFGKLNVEQSLACLKALMDNNIQANIQTVVQVATKFSDLIGPSTLIKLFEDYNATEGLYYYLASLVNLTEDKDVVYKYIEAAAKMKQYREIERIVKDNNVYDPERVKNFLKDANLEDQLPLVIVCDRFDFVHEMILYLYKSQNLKFIETYVQQVNPSKTAQVVGALLDMDCDEAFIQSLLQSVLGQVPINELTTEVEKRNRLKILLPFLEQSLSQGIQDQAVYNALAKIYIDSNNSPEKFLKENDQYDTLDVGHYCEKRDPYLAYIAYEKGQNDDDLIRITNENSMYKYQARYLLERSDLDLWNKVLNQENIHRRQLIDSVISVGIPELTDPEPVSLTVQAFMTNGLKLELIELLEKIILEPSPFNENVALQGLLLLSAIKYEPTKVSSYIEKLDNYDADEIAPLCIEHDLKEEAFEIYDKHEMYGKALKVLIEDIMSLDRAASYADKINTPELWSQIGTAQLDGLRIPDAIESYIKAEDPSNYENVIDIAEQAGKYEELIPFLLMARKTLKEPKIDGALILAYAELNKIHEIENLLAGSNVANLDHVGDKLFENKEYKAARLCYSAVSNYSKLASTLVYLGDYQAAVDTARKASNIKVWKLVNDACIEKKEFKLAQICGLNLIVHAEELDELVERYESNGYFEELISLFEAGLGLERAHMGMFTELAILYSKYEPDKTFEHLKLFWSRINIPKVIRAVEQAHLWSELVFLYAHYDEWDNAALTLIEKSTKDLDHAYFKEVVVKVSNLEIYYKAINFYVKFHPSLLVDLLTSLTPRLDIPRTVKIFSKSDNLPLIKPFLINVLPKNNSVVNQAYHDLMIEEEDYKALQDAVDSYDKFDQLGLASRLESHKLIFFKKIGALLYRRNKKWAKSLSILKEEKLWKDAIETAAISQDPKVVEALLTYFVETGNREGFVALLYAAYNLVRIEFVLEISWMNSLEDYIKPFEISIKKEQNDSIKKITEELAKKSGSNEEHKDGQPLMLMNSAMNVQPTGF
partner: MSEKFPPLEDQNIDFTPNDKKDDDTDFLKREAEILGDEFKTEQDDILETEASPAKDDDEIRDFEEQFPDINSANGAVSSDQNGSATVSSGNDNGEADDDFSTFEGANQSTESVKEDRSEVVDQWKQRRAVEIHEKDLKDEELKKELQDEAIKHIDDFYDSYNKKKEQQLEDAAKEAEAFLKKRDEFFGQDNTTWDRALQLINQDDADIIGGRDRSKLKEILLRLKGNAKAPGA

variants of: B1; details: with clc1_yeast CLC1, P17891
experimental-endpoint: effect of a mutation on the interaction

S1347F;P1553L : with no effect
S1331F;S1347F;P1553L : with no effect
S1331F;S1347F : with no effect

Measured values drawn from IntAct's records for PubMed 9171338 for this set.
